Listed compounds paired with reported inhibition
molecular target: Integrin alpha-4 (Homo sapiens) (UniProt P13612); assay: VLA-4 integrin binding inhibitors – MLPCN library, flow cytometry, VLA-4 expressing cells, VLA-4 allosteric modulator project, primary screen (AID 2557); conditions: ligand binding flow cytometry, active compounds read high, about 7 µM as worked out from the volumes in the protocol
Sequence (P13612 whole entry, looked up): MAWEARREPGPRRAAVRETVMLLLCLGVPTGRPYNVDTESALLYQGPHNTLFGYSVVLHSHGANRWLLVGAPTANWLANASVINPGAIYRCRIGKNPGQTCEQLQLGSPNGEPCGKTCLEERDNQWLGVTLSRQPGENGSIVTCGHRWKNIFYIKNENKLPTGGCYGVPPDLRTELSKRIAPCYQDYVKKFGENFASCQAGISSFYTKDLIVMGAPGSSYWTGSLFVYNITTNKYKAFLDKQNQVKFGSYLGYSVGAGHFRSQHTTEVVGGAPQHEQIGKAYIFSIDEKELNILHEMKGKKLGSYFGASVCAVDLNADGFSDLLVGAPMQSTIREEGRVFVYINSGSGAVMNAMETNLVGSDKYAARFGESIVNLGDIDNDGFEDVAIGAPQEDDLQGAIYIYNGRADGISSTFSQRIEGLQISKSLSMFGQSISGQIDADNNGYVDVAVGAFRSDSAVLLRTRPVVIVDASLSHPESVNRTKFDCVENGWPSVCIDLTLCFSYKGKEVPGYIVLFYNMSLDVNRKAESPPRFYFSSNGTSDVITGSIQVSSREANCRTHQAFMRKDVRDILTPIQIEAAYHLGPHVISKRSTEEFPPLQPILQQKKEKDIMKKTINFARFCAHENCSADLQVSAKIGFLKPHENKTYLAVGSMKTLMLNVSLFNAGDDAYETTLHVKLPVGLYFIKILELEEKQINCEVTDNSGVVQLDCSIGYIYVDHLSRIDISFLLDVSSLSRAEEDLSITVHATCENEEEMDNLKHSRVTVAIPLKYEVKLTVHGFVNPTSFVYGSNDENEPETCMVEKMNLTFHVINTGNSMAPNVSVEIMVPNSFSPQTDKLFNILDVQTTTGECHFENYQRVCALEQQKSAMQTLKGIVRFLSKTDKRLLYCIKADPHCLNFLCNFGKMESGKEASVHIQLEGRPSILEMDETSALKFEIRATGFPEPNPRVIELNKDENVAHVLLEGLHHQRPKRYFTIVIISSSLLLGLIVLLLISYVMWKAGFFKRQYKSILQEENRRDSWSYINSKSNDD
About 650 (0.2%) of roughly 330,000 compounds were called active. For the sample, actives were picked, then their nearest neighbours and some compounds at random.
Express the result in % but write the number alone.

[ask] What does the record list as inhibition for "CCc1nnc(NS(=O)(=O)c2ccc(N=Cc3c(O)n(-c4ccccc4)c(=O)[nH]c3=O)cc2)s1" ?
[reply] -0.39

More entries:
[ask] For the compound "O=c1c2ccccc2nc(-c2ccc(Cl)cc2Cl)n1-c1ccncc1" , what inhibition is on record?
[reply] 62.6

[ask] Another compound: CCOC(=O)CC1=C(C(=O)OCC)C2(C(=O)N1)C(C(=O)OC)=C(N)Oc1ccccc12 (stereo not given)
[reply] -7.95

[ask] Here is the next compound: C=CCN1C(=O)C2(C(C(=O)OCC)=C(N)Oc3c2c(=O)oc2ccccc32)c2ccccc21 (stereo not given)
[reply] 59.3

[ask] Field entry: "Cn1c(O)c(C(=Nc2ccc(F)cc2)c2ccccc2)c(=O)n(C)c1=O"
[reply] 5.63
